Entry source: patent US20230265208A1

# MEASURED_ON: MUC1 on HCT116/MUC1 cells (human, UniProt P15941 24-1255)
# Sequence (P15941 24-1097, chain 1 of 2): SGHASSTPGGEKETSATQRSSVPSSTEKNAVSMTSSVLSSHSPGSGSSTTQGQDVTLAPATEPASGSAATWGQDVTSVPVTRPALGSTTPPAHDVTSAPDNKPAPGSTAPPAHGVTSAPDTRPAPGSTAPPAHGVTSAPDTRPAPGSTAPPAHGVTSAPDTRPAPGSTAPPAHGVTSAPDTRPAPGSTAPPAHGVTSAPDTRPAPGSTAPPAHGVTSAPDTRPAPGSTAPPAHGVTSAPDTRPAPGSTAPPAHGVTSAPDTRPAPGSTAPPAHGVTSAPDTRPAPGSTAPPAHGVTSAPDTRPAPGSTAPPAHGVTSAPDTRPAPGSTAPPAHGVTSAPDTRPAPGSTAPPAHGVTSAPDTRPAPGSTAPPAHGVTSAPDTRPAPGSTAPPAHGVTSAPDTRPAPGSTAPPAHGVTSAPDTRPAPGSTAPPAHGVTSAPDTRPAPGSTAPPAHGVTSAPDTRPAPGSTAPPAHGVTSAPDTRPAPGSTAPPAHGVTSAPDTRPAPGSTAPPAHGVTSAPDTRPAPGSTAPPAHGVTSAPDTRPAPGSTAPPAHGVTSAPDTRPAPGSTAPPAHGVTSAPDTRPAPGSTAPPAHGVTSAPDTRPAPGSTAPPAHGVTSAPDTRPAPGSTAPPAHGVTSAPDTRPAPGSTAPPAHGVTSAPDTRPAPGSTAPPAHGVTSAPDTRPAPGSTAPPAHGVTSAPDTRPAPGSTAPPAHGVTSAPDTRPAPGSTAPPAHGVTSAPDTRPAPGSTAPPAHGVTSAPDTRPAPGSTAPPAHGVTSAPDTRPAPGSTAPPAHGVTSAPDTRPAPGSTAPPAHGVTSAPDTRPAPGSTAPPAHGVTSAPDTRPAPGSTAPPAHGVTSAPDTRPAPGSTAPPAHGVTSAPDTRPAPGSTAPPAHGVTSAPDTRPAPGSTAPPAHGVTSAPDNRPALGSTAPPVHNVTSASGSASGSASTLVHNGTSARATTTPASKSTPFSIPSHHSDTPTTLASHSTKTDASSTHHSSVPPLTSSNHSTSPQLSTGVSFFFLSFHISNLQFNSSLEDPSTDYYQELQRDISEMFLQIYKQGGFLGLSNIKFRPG
# Sequence (P15941 1098-1255, chain 2 of 2): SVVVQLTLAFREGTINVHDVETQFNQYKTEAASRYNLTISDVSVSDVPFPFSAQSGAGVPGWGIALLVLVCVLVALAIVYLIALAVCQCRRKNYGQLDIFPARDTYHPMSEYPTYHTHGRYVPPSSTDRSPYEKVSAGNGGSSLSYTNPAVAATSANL
# ASSAY_TEXT: flow cytometry on HCT116/MUC1 cells; antibody at 0.137174 nM
Exercise: state measured FACS titration signal for each of the binders provided.
One number for each entry.

INSERT INTO assay_data (binder, experimental_result) VALUES
  ('VH1 + VL3 (antibody, V domains shown) VH: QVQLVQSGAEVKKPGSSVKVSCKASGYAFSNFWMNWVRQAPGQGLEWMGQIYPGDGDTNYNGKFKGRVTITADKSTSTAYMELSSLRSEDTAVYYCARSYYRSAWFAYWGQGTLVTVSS VL: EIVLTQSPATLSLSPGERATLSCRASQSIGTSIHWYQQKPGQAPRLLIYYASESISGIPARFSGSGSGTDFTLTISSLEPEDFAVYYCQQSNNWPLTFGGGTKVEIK', 9.47);

Please report FACS titration signal for every entry that follows.
1. VH5 + VL2 (antibody, V domains shown) VH: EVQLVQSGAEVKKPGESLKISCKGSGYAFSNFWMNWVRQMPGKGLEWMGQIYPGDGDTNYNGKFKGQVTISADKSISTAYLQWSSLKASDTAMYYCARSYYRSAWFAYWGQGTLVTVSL VL: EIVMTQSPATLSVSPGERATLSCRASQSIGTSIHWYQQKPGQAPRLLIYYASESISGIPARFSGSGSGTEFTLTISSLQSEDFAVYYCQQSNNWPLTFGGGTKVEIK
2. VH2 + VL3 (antibody, V domains shown) VH: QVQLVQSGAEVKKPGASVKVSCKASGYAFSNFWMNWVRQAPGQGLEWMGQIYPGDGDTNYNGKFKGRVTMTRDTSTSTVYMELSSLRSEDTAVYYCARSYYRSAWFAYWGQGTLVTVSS VL: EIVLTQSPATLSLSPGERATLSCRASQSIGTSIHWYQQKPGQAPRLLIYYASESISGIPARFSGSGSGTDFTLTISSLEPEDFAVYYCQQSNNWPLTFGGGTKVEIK
3. VH1 + VL4 (antibody, V domains shown) VH: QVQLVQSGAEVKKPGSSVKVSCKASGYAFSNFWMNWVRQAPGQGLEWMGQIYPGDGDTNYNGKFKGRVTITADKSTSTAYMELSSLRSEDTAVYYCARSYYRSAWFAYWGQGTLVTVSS VL: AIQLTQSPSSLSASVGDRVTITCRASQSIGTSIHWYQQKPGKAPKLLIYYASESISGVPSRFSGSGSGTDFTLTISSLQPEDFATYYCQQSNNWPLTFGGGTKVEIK

Data returned:
1: 9.2; 2: 9.04; 3: 5.5
